assay details: Toxicity liver stage against HepG2, at 10uM
Assay type: cell-based
Parameters: test concentration 10 uM, cell line HepG2-A16-CD81EGFP
setup conditions: human, HepG2-A16-CD81EGFP cells; read-out: INHIBITION
quantity kind: cytotoxicity at 10 µM (%)

* CN1CCCN(C[C@@H]2CN(C(=O)N3CCOCC3)C[C@@H]2CO)CC1 | -7.43
* O=C(CNC(=O)c1ccccc1F)NCc1ccccn1 | -0.575
* CC(C)C1CN(S(=O)(=O)c2ccc(C#N)cc2)CCS1 (stereo not given) | 6.88
* NC(=O)CN1CCOCC(Cc2cccc(F)c2)C1 (stereo not given) | -12.2
* Cc1ncncc1C(=O)N1CCCC(n2ccnc2C)C1 (stereo not given) | -2.17
* Cn1cc(Br)cc1C(=O)NC1(C#N)CC1 | 21.8
* Cc1cc(C)nc(C2CCCN2C(=O)c2coc(C)n2)n1 (stereo not given) | 6.93
* Fc1ccc(CN2CCC(c3n[nH]c4ncccc34)CC2)cc1F | 9.12
* CCN(Cc1ccoc1)C(=O)NC1CCN(CC=C(C)C)CC1 | -3.89
* N#CC1Sc2nnc(-c3ccccc3Br)n2N=C1N (stereo not given) | -4.81
* COCCC1(C(=O)O)CCN(c2cc(C)c3ccccc3n2)CC1 | -41.6
* CCc1nc2n(n1)CC(NCc1nnc(C(C)C)o1)CC2 (stereo not given) | -15.7
* COCCN1C(=O)C[C@H]2[C@H]1CCN2C(=O)c1ccc[nH]1 | 5.89
* O=c1[nH]c(N2CCN(C3CC3)CC2)nc2c1cnn2-c1ccccc1 | 10.8
* NCC1Cc2cc(Cl)cc(-c3cncc(C(=O)N4CCCCC4)n3)c2O1 (stereo not given) | -53
* OCCN1CCC(c2cncc(-c3cccc(Cl)c3)n2)CC1 | -31.7
* COc1ccccc1CC(=O)NC(CC(=O)O)c1ccc(F)cc1 (stereo not given) | -4.24
* Cn1cc(C(=O)N2CCCC(Cc3cncc4ccccc34)C2)cn1 (stereo not given) | -13.2
* c1cc(CN2CC[C@@H]3CN(c4cnccn4)C[C@@H]3C2)ccn1 | -119
* CSCc1cc(F)ccc1CNC(=O)N1CCCC(CO)C1 (stereo not given) | 10.3
* CNC(=O)Nc1cnc2cc(Cl)ccc2c1O | -30
* CS(=O)(=O)c1ccc(NC(=O)CSc2ccc3c(c2)CCC3)cc1 | 5.73
* O=C(CCNCc1cc(O)c2cc(F)ccc2n1)N1CCCC1 | -49.3
* CCc1c(C(=O)N2CCC3(CC(=O)NC3=O)C2)csc1C (stereo not given) | 1.62
* O=C(c1cccs1)N1CCC2(C1)c1ccccc1S(=O)(=O)N2CC1CC1 (stereo not given) | -4.27
* Cc1cccc(CN2C[C@@H](NC(=O)C3CC3)[C@H]3OCCC[C@H]32)n1 | 7.8
* CN(C)C(=O)CN1CCO[C@H]2CN(Cc3ccoc3)C[C@H]21 | -108
* Cc1nc(C(C)C)sc1C(=O)NCCn1ccnc1 | 1.28
* Cc1cc(NC(=O)CCn2nc(C)c3ccccc32)n(C(C)C)n1 | 4.95
* CCc1nc(CNC2CCN(c3ccc(OC)cc3)CC2)cs1 | -12.8
* O=C(N1CCOCC1)N1CCN(c2ccncc2Cl)CC1 | -4.79
* c1ccc(CCN2CCOC(CNc3cccnn3)C2)nc1 (stereo not given) | -1.56
* Cc1cc(C)n(CCC(=O)N2CCCC(n3nc(C)nc3C)C2)n1 (stereo not given) | -5.61
* CC(=O)N1CCC2(CN(CC3CCCC3)C2)C1 | 2.05
* COc1cccc2c1N(S(=O)(=O)c1cc(C(=O)O)cs1)CCC2 | -1.95
